Data provenance: patent US20200332017A1

# Assay Target: T1, human CD40-Fc protein (amino acid residue 21-193 of SEQ ID NO: 67 linked to N-terminus of amino acid residue … (human, biotin-labeled in the capture ELISA and in the benchmark blocking ELISA; unlabeled when coated in the ligand blocking ELISA)
# T1 construct: also called biotin-labeled human CD40-Fc; human CD40-Fc-biotin
# T1 sequence (chain, as listed by the source): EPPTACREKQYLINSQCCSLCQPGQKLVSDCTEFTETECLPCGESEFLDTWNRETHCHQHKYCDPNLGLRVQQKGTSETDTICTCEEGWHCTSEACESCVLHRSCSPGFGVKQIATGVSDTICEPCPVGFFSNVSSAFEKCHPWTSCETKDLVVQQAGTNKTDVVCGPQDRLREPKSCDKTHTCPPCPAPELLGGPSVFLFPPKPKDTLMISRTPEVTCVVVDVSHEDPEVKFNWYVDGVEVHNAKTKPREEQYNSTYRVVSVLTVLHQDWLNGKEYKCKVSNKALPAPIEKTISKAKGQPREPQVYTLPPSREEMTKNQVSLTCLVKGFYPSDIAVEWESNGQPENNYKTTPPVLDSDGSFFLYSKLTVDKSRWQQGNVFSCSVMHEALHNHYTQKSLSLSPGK
# Protocol: capture ELISA, biotin human CD40-Fc; mAb at 2000 ng/mL
# Procedure: Plates were washed 4 times with wash buffer (PBS+0.05% Tween-20, PBST) and then blocked with 200 μl/well blocking buffer (5% w/v non-fatty milk in PBST) for 2 hours at 37° C. […] The reaction was stopped in 15 minutes at 25° C. with 50 μl/well 1M H₂SO₄, and the absorbance was read at 450 nm and plotted against antibody concentration. Data were analyzed using Graphpad Prism software and EC₅₀ values were reported.
Reported Endpoint: absorbance at 450 nm (OD450)
Please reply with the bare figure in OD450 and do not write the unit itself.

Some solved cases for reference:
Binder: humanized antibody huC1C1-V5 (antibody, human IgG1, kappa, V domains shown, Human IgG1/kappa; also called humanized C1C1-V5) VH: EVQLVESGGGVVQPGRSLRLSCAASGFTFSNYGMSWVRQAPGKGLEWVASISSGGDDTYYPDNVKGRCTISRDNSKNTLYLQMNSLRAEDTAVYYCTRAGGKAMDYWGQGTLVTVSS VL: EIVLTQSPATLSLSPGERATLSCRASQSIRDNLHWYQQKPGQSPRLLINYASQSISGIPARFSGSGSGTDFTLTISSLEPEDFAVYYCQQFNSWPLTFGQGTKVEIKR
absorbance at 450 nm [OD450]: 1.68
//
Binder: humanized antibody huC1C1-V1 (antibody, human IgG1, kappa, V domains shown, Human IgG1/kappa; also called humanized C1C1-V1) VH: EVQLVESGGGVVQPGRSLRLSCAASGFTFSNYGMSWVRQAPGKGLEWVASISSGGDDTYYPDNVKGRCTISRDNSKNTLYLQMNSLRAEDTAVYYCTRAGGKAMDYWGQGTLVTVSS VL: EIVLTQSPATLSLSPGERATLSCRASQSIRDNLHWYQQKPGQSPRLLINYASQSISGIPARFSGSGSGTDFTLTISSLEPEDFAVYFCQQFNSWPLTFGQGTKVEIKR
absorbance at 450 nm [OD450]: 1.78
//
Binder: humanized antibody huC1C1-V3 (antibody, human IgG1, kappa, V domains shown, Human IgG1/kappa) VH: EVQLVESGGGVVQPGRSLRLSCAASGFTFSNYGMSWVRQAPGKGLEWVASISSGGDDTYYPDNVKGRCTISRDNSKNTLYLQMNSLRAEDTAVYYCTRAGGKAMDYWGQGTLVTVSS VL: EIVLTQSPATLSLSPGERATLSCRASQSIRDNLHWYQQKPGQAPRLLINYASQSISGIPARFSGSGSGTDFTLTISSLEPEDFAVYFCQQFNSWPLTFGQGTKVEIKR
absorbance at 450 nm [OD450]: 1.71

Please look at the following binder next.
Which absorbance at 450 nm reading was recorded for the binder humanized antibody huC1C1-V4 (antibody, human IgG1, kappa, V domains shown, Human IgG1/kappa) VH: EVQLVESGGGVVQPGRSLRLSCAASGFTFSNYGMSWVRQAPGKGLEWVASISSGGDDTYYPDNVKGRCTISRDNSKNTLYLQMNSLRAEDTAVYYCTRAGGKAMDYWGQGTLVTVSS VL: EIVLTQSPATLSLSPGERATLSCRASQSIRDNLHWYQQKPGQSPRLLIYYASQSISGIPARFSGSGSGTDFTLTISSLEPEDFAVYFCQQFNSWPLTFGQGTKVEIKR ?
1.7
